biological target: MRGPRX4 (Homo sapiens); test: MRGPRX4 activation, Fluo-8 Ca2+ FLIPR assay in HEK293T cells stably expressing MRGPRX4; assay type: cell-based; set-up: key: fluorescence change dF/F0; conditions: E3-9, Conc. (Log[M]) −4.0
Sequence (Q96LA9 whole entry): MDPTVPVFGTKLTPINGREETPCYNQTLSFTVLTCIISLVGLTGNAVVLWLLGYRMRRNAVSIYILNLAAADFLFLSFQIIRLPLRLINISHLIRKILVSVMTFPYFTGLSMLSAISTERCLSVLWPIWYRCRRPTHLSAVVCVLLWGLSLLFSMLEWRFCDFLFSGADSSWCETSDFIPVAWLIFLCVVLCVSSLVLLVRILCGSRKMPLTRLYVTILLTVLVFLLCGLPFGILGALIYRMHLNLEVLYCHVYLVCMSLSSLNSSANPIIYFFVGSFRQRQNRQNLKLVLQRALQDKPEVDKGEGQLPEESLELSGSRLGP
Metric name: MRGPRX4 activation, Average
Numbers only.

Known MRGPRX4 activation, Average results, listed for orientation:
CC[C@H]1[C@@H](O)[C@@H]2[C@H](CC[C@]3(C)[C@@H]([C@H](C)CCNC(=O)NS(=O)(=O)c4cc(F)cc(F)c4)CC[C@@H]23)[C@@]2(C)CCC(F)(F)C[C@@H]12 [10-3]	0.010
[2H]C1CC[C@@]2(C)[C@@H](C1)[C@@H](CC)[C@@H](O)[C@@H]1[C@@H]2CC[C@]2(C)[C@@H]([C@H](C)CCC(=O)O)CC[C@@H]12 (stereo partly drawn) [13-1]	0.104

# molecule CC[C@H]1[C@@H](O)[C@@H]2[C@H](CC[C@]3(C)[C@@H]([C@H](C)CCNC(=O)NS(=O)(=O)c4cc(F)cc(F)c4)CC[C@@H]23)[C@@]2(C)CC[C@H](F)C[C@@H]12 [9-3] ; its MRGPRX4 activation, Average = 0.006
